Target: h-EP4 (Homo sapiens, UniProt P35408)
Sequence (P35408 whole entry): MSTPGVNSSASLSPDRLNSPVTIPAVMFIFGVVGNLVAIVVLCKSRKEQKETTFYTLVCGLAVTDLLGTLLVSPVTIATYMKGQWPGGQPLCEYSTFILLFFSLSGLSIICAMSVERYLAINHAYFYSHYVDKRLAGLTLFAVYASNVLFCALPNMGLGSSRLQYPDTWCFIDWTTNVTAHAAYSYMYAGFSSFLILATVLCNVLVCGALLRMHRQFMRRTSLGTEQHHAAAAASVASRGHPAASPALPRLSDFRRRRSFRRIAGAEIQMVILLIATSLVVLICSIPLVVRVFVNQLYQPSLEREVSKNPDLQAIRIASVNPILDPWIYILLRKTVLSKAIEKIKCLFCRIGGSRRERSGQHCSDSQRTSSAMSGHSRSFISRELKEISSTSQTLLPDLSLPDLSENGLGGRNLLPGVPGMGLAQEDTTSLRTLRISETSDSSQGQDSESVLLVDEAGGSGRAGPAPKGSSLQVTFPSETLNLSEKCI
Assay: EP4 receptor binding assay (3H-PGE2 SPA)
Details: Table 1; read-out: h-EP4 Ki
Method: Compounds of the invention were tested in an EP4 receptor binding assay of the following protocol.
value-kind: Ki (nM)

-- ask Find Ki (h-EP4 (Homo sapiens, UniProt P35408)) for the entry CCCCC(C)(C)C(O)/C=C/[C@H]1CCC(=O)N1CCc1ccc(C(=O)O)cc1 (stereo in doubt) [Example 6]
-- reply 20

(1) CCCCC[C@H](O)/C=C/[C@H]1CCC(=O)N1CCc1ccc(C(=O)O)cc1
(2) O=C(O)c1ccc(CCN2C(=O)CC[C@@H]2/C=C/[C@@H](O)C2(c3ccccc3)CC2)cc1
(3) CCCCC(C)(C)C(O)/C=C/[C@H]1CCC(=O)N1CCc1ccc(C(=O)O)cc1 (stereo in doubt) [Example 5]
(4) O=C(O)c1ccc(CCN2C(=O)CC[C@@H]2/C=C/[C@H](O)C2(c3ccccc3)CC2)cc1
-- ask Ordering: ascending Ki. List labels; respect the requested ordering.
-- reply 3, 1, 2, 4
